Source: PubChem BioAssay AID624256

Parameter: GFP+ MAC1+ double positive. Scope: all listed entries.
test: HoxA9-arrested leukemia cell differentiation promoters – flow cytometry, MLPCN library, primary screen (AID 624256); conditions: ER-HoxA9 myeloid progenitors, lysozyme-GFP differentiation, at 10 µM; measured here: differentiation confirmed by MAC1 staining, stronger effect = higher value;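 also: cells exposed to compound for four days before flow analysis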
The whole screen tested about 360,000 compounds, of which about 3,700 (1%) were called active. Another 2% or so got no clear call; they are omitted. This is one part of a sample in which actives are shown more often than they occur.
Just the number in %, nothing appended.

Below are worked cases with known answers.
>>> value("CSc1ncccc1C(=O)Nc1ccc2c(c1)OCO2")
1
>>> value("CC1=C(C(=O)N(C(C)C)C(C)C)CC(CC(=O)NCCCCc2ccccc2)C(=O)N1CCC1=CCCCC1 (configuration not stated)")
1

If you can, please state the reported GFP+ MAC1+ double positive value of "CC1CCN(C(=O)c2ccc(S(=O)(=O)Cc3cc(F)ccc3F)c([N+](=O)[O-])c2)CC1" .
1

Which GFP+ MAC1+ double positive reading was recorded for the compound "CC1(C)OC(=O)C2=C(C[C@@H](C3CCCCC3)O[C@@H]2c2ccc(Cl)cc2)O1" ?
0.8

Field request: GFP+ MAC1+ double positive | item: CC(NC(=O)COC(=O)c1ccc(Cl)cc1O)c1ccc(F)cc1 (configuration not stated)
6.2

Quick one: GFP+ MAC1+ double positive of "CSc1ncccc1C(=O)NCc1ccccc1Cl" ?
0.9

Request the reported GFP+ MAC1+ double positive associated with CC(NC(=O)COC(=O)CCC(=O)c1ccc(Cl)cc1)c1ccccc1 (configuration not stated)
0.8

Quick one: GFP+ MAC1+ double positive of "CCOC(=O)c1cc2cc(OC)ccc2n1C1CCN(C)CC1" ?
0.3

Using the record for "CCCCC[C@@H]1C=C(C(=O)OCC)[C@H](c2ccccc2)N1S(=O)(=O)c1ccc(C)cc1" , report its GFP+ MAC1+ double positive.
0.5

Please give the measured GFP+ MAC1+ double positive for this compound: "Cc1nn(-c2cc(Cl)ccc2N)c(=O)c2ccccc12"
7.4

# lookup: GFP+ MAC1+ double positive of "Cc1nc2c(OCc3ccc(Cl)cc3)cccn2c1N(C)Cc1cccs1"
0.4

Fill blank: measured GFP+ MAC1+ double positive of the compound "Oc1cccc2cc(-c3ccncc3)cnc12" is ____.
0.7
